The origin of these recorded values is paper PMC8629796.

Target: hERG (hERG1a, Kv11.1) potassium channel (Homo sapiens, UniProt Q12809, Y652A)
Construct: hERG1a Y652A transiently expressed in HEK293 cells
Sequence (Q12809 whole entry Y652A): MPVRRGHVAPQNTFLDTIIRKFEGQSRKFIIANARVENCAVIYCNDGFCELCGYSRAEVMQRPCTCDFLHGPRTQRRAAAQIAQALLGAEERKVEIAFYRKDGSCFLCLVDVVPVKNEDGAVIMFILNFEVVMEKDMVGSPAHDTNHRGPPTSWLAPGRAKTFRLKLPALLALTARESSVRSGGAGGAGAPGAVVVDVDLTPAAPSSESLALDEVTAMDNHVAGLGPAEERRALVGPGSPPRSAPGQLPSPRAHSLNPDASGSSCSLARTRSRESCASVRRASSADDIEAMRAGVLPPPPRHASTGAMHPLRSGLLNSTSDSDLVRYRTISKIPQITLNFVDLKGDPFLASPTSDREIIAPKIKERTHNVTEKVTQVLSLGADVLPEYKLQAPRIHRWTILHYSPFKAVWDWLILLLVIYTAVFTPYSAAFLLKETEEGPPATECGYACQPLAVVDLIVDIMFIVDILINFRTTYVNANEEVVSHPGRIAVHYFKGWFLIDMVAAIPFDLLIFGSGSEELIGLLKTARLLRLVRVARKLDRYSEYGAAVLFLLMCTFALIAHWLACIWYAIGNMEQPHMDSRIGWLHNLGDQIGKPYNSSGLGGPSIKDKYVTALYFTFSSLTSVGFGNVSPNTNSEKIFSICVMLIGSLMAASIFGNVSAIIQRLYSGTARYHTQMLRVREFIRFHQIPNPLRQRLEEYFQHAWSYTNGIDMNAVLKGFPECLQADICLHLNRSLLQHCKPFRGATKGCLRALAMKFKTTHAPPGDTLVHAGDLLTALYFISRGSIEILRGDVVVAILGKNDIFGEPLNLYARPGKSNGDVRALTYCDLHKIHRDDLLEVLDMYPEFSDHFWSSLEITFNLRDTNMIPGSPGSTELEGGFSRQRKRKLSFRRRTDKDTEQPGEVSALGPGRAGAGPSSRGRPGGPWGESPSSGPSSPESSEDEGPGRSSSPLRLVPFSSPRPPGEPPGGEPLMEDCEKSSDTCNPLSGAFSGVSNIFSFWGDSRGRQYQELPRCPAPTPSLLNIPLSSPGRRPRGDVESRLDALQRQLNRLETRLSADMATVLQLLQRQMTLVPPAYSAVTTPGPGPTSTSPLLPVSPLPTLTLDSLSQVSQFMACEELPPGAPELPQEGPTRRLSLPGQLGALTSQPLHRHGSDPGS
Test: whole-cell patch clamp, tail current inhibition
METRIC_NAME: IC50 (µM)
Give the value, in units of µM, as a plain number.

IC50 measured on c1ccc2c(c1)ccc1ccccc12 [phenanthrene] = 0.46

====

Target: zebrafish ERG (zERG) (Danio rerio)
Sequence (A0A8M1PIE0 1-1186): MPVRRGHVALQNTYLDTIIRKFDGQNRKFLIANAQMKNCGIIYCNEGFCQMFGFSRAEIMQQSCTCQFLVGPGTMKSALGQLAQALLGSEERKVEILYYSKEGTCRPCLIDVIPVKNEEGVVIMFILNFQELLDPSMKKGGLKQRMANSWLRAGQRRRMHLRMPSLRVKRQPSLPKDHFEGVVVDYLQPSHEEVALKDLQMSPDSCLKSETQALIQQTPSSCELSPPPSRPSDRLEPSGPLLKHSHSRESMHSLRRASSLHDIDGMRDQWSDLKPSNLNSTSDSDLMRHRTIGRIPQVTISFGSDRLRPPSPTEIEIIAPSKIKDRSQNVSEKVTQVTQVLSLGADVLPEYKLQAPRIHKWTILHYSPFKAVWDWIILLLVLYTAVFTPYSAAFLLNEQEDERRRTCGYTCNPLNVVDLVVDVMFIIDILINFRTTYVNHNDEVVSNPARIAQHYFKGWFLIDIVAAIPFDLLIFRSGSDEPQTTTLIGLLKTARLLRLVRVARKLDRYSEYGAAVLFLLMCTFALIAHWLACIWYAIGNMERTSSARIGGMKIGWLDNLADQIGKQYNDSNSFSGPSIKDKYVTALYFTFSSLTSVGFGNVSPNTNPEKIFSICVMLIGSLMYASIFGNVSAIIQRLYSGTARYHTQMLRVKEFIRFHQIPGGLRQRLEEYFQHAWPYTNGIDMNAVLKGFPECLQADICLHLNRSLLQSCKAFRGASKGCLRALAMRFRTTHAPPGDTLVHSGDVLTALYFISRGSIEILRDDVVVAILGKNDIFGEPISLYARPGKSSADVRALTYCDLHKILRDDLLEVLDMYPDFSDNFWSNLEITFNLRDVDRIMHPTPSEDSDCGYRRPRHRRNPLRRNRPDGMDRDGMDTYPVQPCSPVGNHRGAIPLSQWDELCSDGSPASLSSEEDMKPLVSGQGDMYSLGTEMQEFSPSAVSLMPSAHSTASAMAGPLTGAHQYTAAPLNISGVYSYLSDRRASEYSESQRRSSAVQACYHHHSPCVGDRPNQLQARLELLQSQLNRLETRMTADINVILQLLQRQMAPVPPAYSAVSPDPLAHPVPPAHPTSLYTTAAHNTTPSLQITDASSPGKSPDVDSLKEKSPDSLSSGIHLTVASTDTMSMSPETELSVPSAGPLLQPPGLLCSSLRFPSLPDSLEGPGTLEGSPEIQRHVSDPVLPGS
Experiment: whole-cell patch clamp, current inhibition
METRIC_NAME: pIC50
To interpret pIC50, take it as minus log10 of a concentration measured in moles per litre.

Simply: c1ccc2c(c1)ccc1ccccc12 [phenanthrene] , zebrafish ERG (zERG) (Danio rerio), pIC50 = 5.06

====

Target: hERG (hERG1a, Kv11.1) potassium channel (Homo sapiens, UniProt Q12809)
Construct: WT hERG1a stably expressed in HEK293 cells
Assay: whole-cell patch clamp, tail current inhibition
METRIC_NAME: IC50

Entry c1ccc2c(c1)ccc1ccccc12 , IC50 reported as 17.6 µM
